target: soluble HLA-DR1 (HLA-DR alpha truncated after Asn192 with a C-terminal nine amino acid HA epitope tail; HLA-DR1 beta truncated after Lys198), made in Baculovirus-infected insect cells (human); assay: release ELISA: soluble HLA-DR1 tethered by 12CA5 and preloaded with biotin-hMBP(90-102); AE peptide 64 uM, 1 h 37 C, no unlabeled peptide; biotin still bound read by avidin-HRP (1.0 = PBS control, 0.0 = no DR1; low value = released)
Lab note: anything with Relative Release (fraction of positive control o.d.) at or over 0.02 counts as 1; the rest go in -1.

{"binder": "YRMKLPKPPKPVSKMR [AE100]", "class": 1}
{"binder": "Ac-LRMKLPKPP-NH2 [AE401]", "class": 1}
{"binder": "Ac-MKLPKPPKPV-NH2 [AE403]", "class": 1}
{"binder": "YRMKLPKSAKPV [AE107]", "class": -1}
{"binder": "YRMKLPKSAK [AE108]", "class": 1}
{"binder": "KLPKSAKPVSQMR [AE103]", "class": -1}
{"binder": "YRMKLPKSAKPVSQMR [AE101]", "class": -1}

The measured values listed here are drawn from patent US6835382B2.
